The values you see were collected from the supplement of paper PMC10567573.

B1: SEC22B (parent)
chain: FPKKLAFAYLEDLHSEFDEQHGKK

Variants of: B1
Experiment: protein stability index of a GFP-peptide fusion (GPS, HEK-293T) (PSI 1-6); higher = more stable;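 note: lentivirally expressed fusions sorted by FACS into six bins by GFP to DsRed ratio, PSI derived from sequencing read proportions per bin multiplied by bin number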
Conditions: c terminus: a fixed tail appended
Kindly return yes (1) if reported protein stability index is no lower than 3; return no (0) if it is lower.

[[record]]
variantdescriptor = "E19N"
classification = "no (0)"

[[record]]
variantdescriptor = "K24R"
classification = "no (0)"

[[record]]
variantdescriptor = "F7D"
classification = "yes (1)"

[[record]]
variantdescriptor = "P2D"
classification = "yes (1)"

[[record]]
variantdescriptor = "K3I"
classification = "no (0)"

[[record]]
variantdescriptor = "D18E"
classification = "no (0)"

[[record]]
variantdescriptor = "K24C"
classification = "no (0)"

[[record]]
variantdescriptor = "D18L"
classification = "no (0)"

[[record]]
variantdescriptor = "G22K"
classification = "no (0)"

[[record]]
variantdescriptor = "L13K"
classification = "yes (1)"

[[record]]
variantdescriptor = "S15L"
classification = "no (0)"

[[record]]
variantdescriptor = "L10E"
classification = "yes (1)"

[[record]]
variantdescriptor = "H21K"
classification = "no (0)"

[[record]]
variantdescriptor = "A8R"
classification = "no (0)"

